test system: PC-3 prostate; experiment: NCI-60 one-dose screen, 48 h (100 = growth as untreated, 0 = no growth, -100 = all killed); settings: 10 µM unless noted
Compounds without any hit were thinned out: in the full panel of roughly 83,000, 20% have a hit.
Measured Metric: growth (%)
One number for each entry, in %.

CCOC(=O)CC(C#N)(CC(=O)OCC)C(=O)OCC ... 89.2
Nc1c(C(=O)Nc2c(Cl)cccc2Cl)sc2nc3c(cc12)CCCCC3 ... 70.6
O=C(NCCCN1CCN(CCCNC(=O)C2CCCCC2)CC1)C1CCCCC1 ... 91.3

Continue with the compound presented below.
Exercise: Requested read-out growth, target or system PC-3 prostate, entry NC(C(=O)O)C(O)c1ccc(OCc2ccccc2)c(OCc2ccccc2)c1 (centres undefined)
Solution: 89.1
